Below, each entry is listed alongside its reported composite z-score.
Biological target: Calmodulin-1 (Homo sapiens)
Assay: CALM1 binders on microarrays, EGTA buffer, profiling panel, biochemical, small-molecule microarray, Cy5-labelled CALM1 (AID 1111);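 note: labelled calmodulin applied in Tris saline Tween buffer holding calcium plus EGTA and DTT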
Details: Cy5-CALM1 binding fluorescence, higher = more signal
MEASUREMENT_TYPE: composite z-score

>>> print(df.to_string())
                                   molecule  readout_number
0  COc1cccc(/C=C(\C#N)C(=O)Nc2c(C)n(C)n(-c3ccccc3)c2=O)c1            1.27
1  [N-]=[N+]=NCc1ccccc1C[C@]1(C(=O)N2CCOCC2)COC(c2ccc(OCCCO)cc2)=N1            2.35
2  CC1CC/C=C\[C@H]2OC34C=CCN(C(C)(C)C)C(=O)[C@H]3N(C(CO)C(C)C)C(=O)[C@@H]4C2C(=O)O1 (some centres not stated)          -0.745
3  NC(=O)[C@H]1[C@@H]2C(=O)O[C@@H](c3ccccc3)[C@@H](c3ccccc3)N2[C@@H](c2ccc(O)cc2)[C@]12C(=O)Nc1ccc(C#CC3=CCCCC3)cc12          0.0791
4  [N-]=[N+]=Nc1ccccc1[C@@H]1OC(c2ccc(OCCCO)cc2)=N[C@]1(Cc1ccccc1)C(=O)NCc1ccccc1            2.46
5  O=C1C2C=CC(C(O)c3cc(C(F)(F)F)cc(C(F)(F)F)c3)N(Nc3ccccc3F)C2C(=O)N1c1ccccc1 (configuration not stated)           0.896
6                       Nc1cc(Br)ccc1C(=O)O           0.955

====

Tested on: Noggin (protein binding on small-molecule microarray)
Assay: Noggin binders on small-molecule microarray, primary screen, biochemical, 635/667 nm fluorescence (AID 1095);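 note: score merges 667 nm feature fluorescence with signal to noise over triplicate slides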
Conditions: 635 nm fluorescence, higher = more signal
Below, each entry is listed alongside its reported composite z-score.
MEASUREMENT_TYPE: composite z-score

COMPOUND	TARGET_SYSTEM	RESULT
CN(C)C(=O)[C@@]1(CCC(=O)OC(C)(C)C)N=C(c2ccc(OCCCO)cc2)O[C@H]1c1ccccc1CN=[N+]=[N-]	Noggin (protein binding on small-molecule microarray)	0.968
COc1cc(CO)cc(I)c1O[C@H]1C=C(C(=O)NCCO)C[C@@H](NCC2CCCCC2)[C@@H]1O	Noggin (protein binding on small-molecule microarray)	0.323
CN1C(=O)C2C(C1=O)C1C=C(CCCO)C2C(c2cccs2)N1Cc1cc2c(cc1Br)OCO2 (stereo unspecified)	Noggin (protein binding on small-molecule microarray)	0.639
[N-]=[N+]=NCc1ccccc1[C@@H]1OC(c2ccc(OCCCO)cc2)=N[C@]1(Cc1ccccc1N=[N+]=[N-])C(=O)N1CCCCC1	Noggin (protein binding on small-molecule microarray)	0.345
C=C[C@@H](C)[C@@H](OC(=O)Nc1ccc(SC)cc1)c1ccc(OCCO)cc1	Noggin (protein binding on small-molecule microarray)	0.172
CC(C)CNC(=O)[C@@H]1c2ccccc2C(=O)N(C2CCCCC2)[C@H]1c1ccc(CO)cc1	Noggin (protein binding on small-molecule microarray)	-0.369
CCCCCCCCCCC(O)C1C=CC2C(=O)N(C)C(=O)C2N1Nc1cc(OC)c(OC)c(OC)c1 (stereo unspecified)	Noggin (protein binding on small-molecule microarray)	-1.3
O=C1[C@@]23C=C(Br)[C@H](C[C@@H]2COC3)[C@@]12CO2	Noggin (protein binding on small-molecule microarray)	0.648
CN1C=C(C(=O)OCCS(C)(=O)=O)C(C(=O)OCCS(C)(=O)=O)=CC(c2ccc(CO)cc2)=CC1c1cccs1 (stereo unspecified)	Noggin (protein binding on small-molecule microarray)	0.484
COC(=O)c1c2oc(c1C(=O)OC)C(=O)N1CCC[C@H]1Cn1nncc1CN(Cc1ccccc1)C(=O)N[C@H](CO)CC2	Noggin (protein binding on small-molecule microarray)	0.743
CCOC(=O)C=Cc1ccccc1O	Noggin (protein binding on small-molecule microarray)	-0.0491
C=C(COC)C(=O)CC[C@@H](OC(=O)c1cccnc1)c1ccccc1OCCO	Noggin (protein binding on small-molecule microarray)	0.879
O=C1O[C@H](c2ccccc2)[C@H](c2ccccc2)N2[C@H]1[C@@H](C(=O)O)[C@]1(C(=O)Nc3ccc(C#CC4(O)CCCCCC4)cc31)[C@H]2c1ccc(O)cc1	Noggin (protein binding on small-molecule microarray)	-0.292
O=C1C2C=CC(C(O)c3ccc4c(c3)OCO4)N(Nc3ccccc3)C2C(=O)N1c1ccccc1 (stereo unspecified)	Noggin (protein binding on small-molecule microarray)	-0.0526
C=C[C@@H](OC)[C@H](OC(=O)Nc1ccc(OC)cc1)c1ccc(OC)c(O)c1	Noggin (protein binding on small-molecule microarray)	-0.527
Cc1cccc([C@H]2C[C@H]3C(I)=C[C@@H]2C(=O)[C@]32CO2)c1	Noggin (protein binding on small-molecule microarray)	0.461
CC(C)[C@H]1NC(=O)[C@@]23C(=O)N[C@@H](Cc4ccccc4)C2[C@H](C)[C@@]2(C)O[C@H]2C3/C=C/CCC/C=C/CNC(=O)[C@H](Cc2ccccc2)NC1=O (stereo partly specified)	Noggin (protein binding on small-molecule microarray)	1.22
NC(=O)[C@H]1[C@@H]2C(=O)O[C@@H](c3ccccc3)[C@@H](c3ccccc3)N2[C@@H](c2ccc(O)cc2)[C@]12C(=O)Nc1ccccc12	Noggin (protein binding on small-molecule microarray)	-1.18
CC(C)(C)OC(=O)CC[C@]12N=C(c3ccc(OCCCO)cc3)O[C@H]1c1ccccc1N(Cc1ccccc1)C2=O	Noggin (protein binding on small-molecule microarray)	0.938
COCC1=C2[C@@H](CCc3ccccc3)OB(O)C[C@@H]2[C@@H]2C(=O)N(C)C(=O)[C@@H]2C1	Noggin (protein binding on small-molecule microarray)	0.0638
O=C(N1CCOCC1)[C@@]1(CCS(=O)(=O)c2ccccc2)N=C(c2ccc(OCCCO)cc2)O[C@H]1c1ccccc1	Noggin (protein binding on small-molecule microarray)	0.136
CCOC(=O)C[C@H]1[C@H](OC(=O)c2ccc(C(=O)c3ccccc3)cc2)[C@@H](NC(=O)CC(C)C)c2cc(OCCCO)ccc2N1C(=O)Cc1ccc(OC)cc1	Noggin (protein binding on small-molecule microarray)	-0.114
O=C1O[C@H](c2ccccc2)[C@H](c2ccccc2)N2[C@H]1[C@@H](C(=O)N1CCCCCCC1)[C@]1(C(=O)Nc3ccc(C#CC4(O)CCCCCC4)cc31)[C@H]2c1ccccc1OCCO	Noggin (protein binding on small-molecule microarray)	2.38
COc1cc(C(O)C2C=CC3C(=O)N(Cc4ccccc4)C(=O)C3N2n2cnnc2)cc(OC)c1OC (stereo unspecified)	Noggin (protein binding on small-molecule microarray)	-0.127
NC(=O)N1C(=O)C2C(C1=O)C1C=C(CCCO)C2C(C2CC2)N1Cc1cccc(OC(F)(F)F)c1 (stereo unspecified)	Noggin (protein binding on small-molecule microarray)	-0.0319
COC(=O)C(CC#Cc1ccc2c(c1)[C@]1(C(=O)N2)[C@H](c2ccc(O)cc2)N2[C@H](c3ccccc3)[C@H](c3ccccc3)OC(=O)[C@H]2[C@@H]1C(=O)N1CCCCCCC1)C(=O)OC	Noggin (protein binding on small-molecule microarray)	1.91
